- target.system: C-X-C chemokine receptor type 6 (Homo sapiens)
- assay.name: potency against CXCR6 with APJ panel – cell-based, beta-arrestin, DiscoveRx, uHTS hits, dose response (AID 624129)
- test.parameters: CXCR6 beta-arrestin (DiscoveRx) antagonist cell assay, CXCR6, dose range 1, mean IC50 across replicates
Under this convention, t denotes IC50 strictly below 5 µM and f denotes IC50 at or above 5 µM.

{"molecule": "Cc1ccccc1Oc1cc(-n2ncc(Cl)c(Cl)c2=O)ncn1", "cat": "t"}
{"molecule": "Cc1[nH]n(-c2ccccc2)c(=S)c1C=NCCCN=Cc1c(C)[nH]n(-c2ccccc2)c1=S", "cat": "t"}
{"molecule": "O=C1c2cccc3c([N+](=O)[O-])ccc(c23)C(=O)N1c1ccc(Cl)cn1", "cat": "f"}
{"molecule": "CC(=O)OCCCNc1cc(Sc2ccc(Cl)cc2)c2nonc2c1[N+](=O)[O-]", "cat": "t"}
{"molecule": "O=Cc1s/c(=N\\S(=O)(=O)c2ccccc2)n(CCCCl)c1Cl", "cat": "t"}
{"molecule": "COC(=O)c1ccc(NC(=O)c2nc(S(=O)(=O)Cc3cccc(C)c3)ncc2Cl)cc1", "cat": "f"}
{"molecule": "CCOc1ccc(Nc2ccc([N+](=O)[O-])c3nonc23)cc1", "cat": "f"}
{"molecule": "N#CC(C#N)=C1C=CC=CN1/C(=C\\c1ccco1)C(=O)c1ccc(-c2ccccc2)cc1", "cat": "f"}
{"molecule": "O=C(NNc1ccc([N+](=O)[O-])cc1[N+](=O)[O-])c1ccco1", "cat": "f"}
{"molecule": "CCC(=O)OCCNc1cc(Sc2nccn2C)c2nonc2c1[N+](=O)[O-]", "cat": "t"}
